# Tested on: Hela
# MEASUREMENT PROTOCOL: Cell viability assay (CellTiter-Glo, day 7)
# Format: cell-based
# CONDITION: Homo sapiens, 168 h
pIC50: −log10 of the molar value.

>  <SAMPLE SMILES>
Nc1nccc2c(Br)cc3cc(C(=O)[O-])ccc3c12.[Na+]

>  <pIC50>
5.00 to 6.00

$$$$

###

# System: MCF7
# MEASUREMENT PROTOCOL: Cell viability assay (CellTiter-Glo, day 7)
# Type: cell-based
# CONDITION: Homo sapiens, 168 h; MCF7, day 7

>  <COMPOUND>
Nc1nccc2c(Br)cc3cc(C(=O)[O-])ccc3c12.[Na+] [Compound 29]

>  <IC50>
1 to 10 µM

$$$$
